readout_type: melting point

record_smiles: CCCn1c(=O)c2[nH]c(-c3cc(C)n(CC(=O)Nc4ccc(I)cc4)n3)nc2n(CCC)c1=O
melting point: 286 to 289 °C
//
record_smiles: CCCn1c(=O)c2[nH]c(-c3cc(C)n(CC(=O)Nc4cccc5ccccc45)n3)nc2n(CCC)c1=O
melting point: > 300 °C

Lookup: Which melting point is reported for this compound? CCCn1c(=O)c2[nH]c(-c3cc(C)n(CC(=O)Nc4ccc(OC)cc4)n3)nc2n(CCC)c1=O
Found: 293 to 296 °C

Lookup: What measured melting point goes with CCCn1c(=O)c2[nH]c(-c3cc(C)n(CC(=O)Nc4ccc(Cl)cc4)n3)nc2n(CCC)c1=O ?
Found: 261 to 265 °C

###

target_entity: human A2B adenosine receptors (Homo sapiens, UniProt P29275)
Sequence (P29275 1-332): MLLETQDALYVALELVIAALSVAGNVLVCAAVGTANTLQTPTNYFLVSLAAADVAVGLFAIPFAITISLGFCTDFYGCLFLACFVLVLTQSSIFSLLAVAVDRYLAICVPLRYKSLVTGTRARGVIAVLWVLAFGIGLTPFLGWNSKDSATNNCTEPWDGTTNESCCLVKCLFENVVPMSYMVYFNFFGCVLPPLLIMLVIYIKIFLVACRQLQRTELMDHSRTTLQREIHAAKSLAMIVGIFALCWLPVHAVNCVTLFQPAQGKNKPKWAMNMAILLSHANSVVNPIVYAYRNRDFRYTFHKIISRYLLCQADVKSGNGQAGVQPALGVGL
test_name: Displacement of [3H]MRE2029F20 binding at human A2B adenosine receptors
run_conditions: [3H]MRE2029F20 displacement, human A2B receptors (footnote: HEK293 cells; method: CHO cells), n = 3-6; geometric mean (95% confidence limits); read-out: Ki hA2B
readout_type: pKi
On this scale, pKi is minus log10 of a concentration expressed in M (mol/L).

Below, 5 compounds whose answers are already recorded.
compound: CCCn1c(=O)c2[nH]c(-c3cc(C)n(CC(=O)Nc4ccc(Cl)c(Cl)c4)n3)nc2n(CCC)c1=O [Example 16]
target_entity: human A2B adenosine receptors (Homo sapiens, UniProt P29275)
reported_value: 7.40

compound: CCCn1c(=O)c2[nH]c(-c3cc(C)n(CC(=O)Nc4ccc(OC)cc4)n3)nc2n(CCC)c1=O [Example 6]
target_entity: human A2B adenosine receptors (Homo sapiens, UniProt P29275)
reported_value: 7.92

compound: CCCn1c(=O)c2[nH]c(-c3cc(C)n(CC(=O)Nc4ccccc4)n3)nc2n(CCC)c1=O [Example 1]
target_entity: human A2B adenosine receptors (Homo sapiens, UniProt P29275)
reported_value: 7.82

compound: CCCn1c(=O)c2[nH]c(-c3cc(C)n(CC(=O)Nc4cccc(Cl)c4)n3)nc2n(CCC)c1=O [Example 15]
target_entity: human A2B adenosine receptors (Homo sapiens, UniProt P29275)
reported_value: 7.55

compound: CCCn1c(=O)c2[nH]c(-c3cc(C)n(CC(=O)Nc4ccc(C)c(C)c4)n3)nc2n(CCC)c1=O [Example 7]
target_entity: human A2B adenosine receptors (Homo sapiens, UniProt P29275)
reported_value: 7.32

The record that follows has no pKi shown yet.
Lookup: Requested field: pKi. Item: CCCn1c(=O)c2[nH]c(-c3cc(C)n(CC(=O)Nc4ccc(Cl)cc4)n3)nc2n(CCC)c1=O [Example 4]
Found: 8.15
